# TARGET_ENTITY: delta-5-desaturase (Homo sapiens, UniProt O60427)
# Construct: endogenous in cells; host or cells: HepG2
# Sequence (O60427 whole entry): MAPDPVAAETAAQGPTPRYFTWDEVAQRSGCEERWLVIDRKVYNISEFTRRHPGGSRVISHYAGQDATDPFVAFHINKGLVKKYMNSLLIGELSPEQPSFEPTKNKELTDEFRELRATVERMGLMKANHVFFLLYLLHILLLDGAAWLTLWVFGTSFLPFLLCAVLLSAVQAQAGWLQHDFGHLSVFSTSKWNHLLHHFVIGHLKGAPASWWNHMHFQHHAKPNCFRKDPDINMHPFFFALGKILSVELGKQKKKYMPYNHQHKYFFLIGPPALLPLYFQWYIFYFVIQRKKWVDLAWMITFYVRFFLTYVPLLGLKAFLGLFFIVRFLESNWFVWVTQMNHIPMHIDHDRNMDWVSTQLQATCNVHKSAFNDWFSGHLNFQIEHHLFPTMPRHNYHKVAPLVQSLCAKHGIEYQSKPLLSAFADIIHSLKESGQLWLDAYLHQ
# RUN_DESCRIPTION: Delta-5-desaturase inhibitory activity using HepG2 cell
# Format: cell-based
# RUN_CONDITIONS: test compound 1 μM
PARAMETER: inhibition at 1 µM (%)

COMPOUND_STRUCTURE	TARGET_ENTITY	inhibition at 1 µM / %
CCSc1nc2c(c(=O)n1-c1ccc(OCC(F)(F)F)cc1)CCNC2=O	delta-5-desaturase (Homo sapiens, UniProt O60427)	89
CS(=O)(=O)CCCOc1nc2[nH]c(=O)ccc2c(=O)n1-c1ccc(OCC(F)(F)F)cc1	delta-5-desaturase (Homo sapiens, UniProt O60427)	88
CCSc1nc2c(=O)[nH]ccc2c(=O)n1-c1ccc(OCC(F)(F)F)cc1	delta-5-desaturase (Homo sapiens, UniProt O60427)	96
CCCSc1nc2c(=O)[nH]ccc2c(=O)n1-c1ccc(OCC(F)(F)F)cc1	delta-5-desaturase (Homo sapiens, UniProt O60427)	96
COCC(F)(F)COc1nc2[nH]c(=O)ccc2c(=O)n1-c1ccc(OCC(F)(F)F)cc1	delta-5-desaturase (Homo sapiens, UniProt O60427)	103
COc1ccc2c(=O)n(-c3ccc(OCC(F)(F)F)cc3)c(OCC(F)(F)F)nc2n1	delta-5-desaturase (Homo sapiens, UniProt O60427)	95
CCSc1nc2c(c(=O)n1-c1ccc(OCC(F)(F)F)cc1)SCC(=O)N2	delta-5-desaturase (Homo sapiens, UniProt O60427)	92
CCCc1nc2c(c(=O)n1-c1ccc(OCC(F)(F)F)cc1)CCC(=O)N2	delta-5-desaturase (Homo sapiens, UniProt O60427)	92
O=c1ccc2c(=O)n(-c3ccc(OCC(F)(F)F)cc3)c(OC3CCC(F)(F)CC3)nc2[nH]1	delta-5-desaturase (Homo sapiens, UniProt O60427)	102
CCSc1nc2c(c(=O)n1-c1ccc(OCC(F)(F)F)cc1)CCC(=O)N2	delta-5-desaturase (Homo sapiens, UniProt O60427)	109
O=c1[nH]ccc2c(=O)n(-c3ccc(OCC(F)(F)F)cc3)c(OCC(F)(F)F)nc12	delta-5-desaturase (Homo sapiens, UniProt O60427)	96
O=c1ccc2c(=O)n(-c3ccc(OCC(F)(F)F)cc3)c(OCC(F)(F)CO)nc2[nH]1	delta-5-desaturase (Homo sapiens, UniProt O60427)	103
CC(C)Oc1nc2[nH]c(=O)ccc2c(=O)n1-c1ccc(OCC(F)(F)F)cc1	delta-5-desaturase (Homo sapiens, UniProt O60427)	97
CCSc1nc2nc(OC)cnc2c(=O)n1-c1ccc(OCC(F)(F)F)cc1	delta-5-desaturase (Homo sapiens, UniProt O60427)	93
CCSc1nc2[nH]c(=O)cnc2c(=O)n1-c1ccc(OCC(F)(F)F)cc1	delta-5-desaturase (Homo sapiens, UniProt O60427)	76
COc1nc2[nH]c(=O)ccc2c(=O)n1-c1ccc(OCC(F)(F)F)cc1	delta-5-desaturase (Homo sapiens, UniProt O60427)	95
CCSc1nc2nc(C(N)=O)ccc2c(=O)n1-c1ccc(OCC(F)(F)F)cc1	delta-5-desaturase (Homo sapiens, UniProt O60427)	98
